Experiment: In vivo rat pharmacokinetic studies (cleavage of compounds into compound Z)
Details: male, Sprague-Dawley, plasma, intravenous, 1 mg/kg
Parameter: concentration at 0.5 h (ng/mL)
Your answer should be a plain number; it is taken to be in ng/mL.

(Q) Supply concentration at 0.5 h value. Item: O=P([O-])([O-])OCn1/c(=N\c2c(F)cc(F)cc2F)n([C@H]2CCOC2)c2nc(NC3CCC(O)CC3)ncc21.[Na+].[Na+] (stereo partly shown) [Compound Q8]
(A) 21

====

Experiment: Thermodynamic solubility assay (shake flask, HPLC-UV) in PBS
Assay type: physicochemical
Settings: 25 °C, aqueous buffer, thermodynamic from solid; PBS pH 7.4, shaken 24 hr at room temperature (25±2° C.)
Parameter: solubility thermodynamic at 24 h (mg/mL)
Your answer should be a plain number; it is taken to be in mg/mL.

(Q) Supply solubility thermodynamic at 24 h value. Item: O=P([O-])([O-])OP(=O)([O-])OC1CCC(Nc2ncc3nc(Nc4c(F)cc(F)cc4F)n([C@H]4CCOC4)c3n2)CC1.[Na+].[Na+].[Na+] (stereo partly shown)
(A) 19.4
